So I've got a bunch of substances here, and I need their amyloid nucleation score values.
- methodSummary: amyloid nucleation score (Sup35N fusion, yeast selection) (log enrichment); library NNK2; higher = more nucleation; inactive = no reads after selection;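 further: zero at mode of non-aggregating sequences after 7 days selection at 30°C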
Provide a numeric answer; units are not to be included.

Entry `MMAIHVRMLARQSFGRICFM` : reported amyloid nucleation score = ?
3.45

Same lookup for `MNNDSAFIEYTGHQWIWGVR` , please.
0.269

Same lookup for `VLLRDNGLELFAP` , please.
0.779

Same lookup for `HVYLSLEDQGILNSTECMQH` , please.
-0.393

Same lookup for `VKSRRLTYNS` , please.
0.192

Same lookup for `RPTHEAF` , please.
5.87

###

- methodSummary: amyloid nucleation score (Sup35N fusion, yeast selection) (log enrichment); library NNK2; higher = more nucleation; inactive = no reads after selection

constructSequence: FWRAFMLHWGNFLLMRALHE
amyloid nucleation score: inactive
//
constructSequence: ELMDNFLVSFVGKHRVTRSS
amyloid nucleation score: inactive
//
constructSequence: KPRMWIYIFMAWEAYPAYI
amyloid nucleation score: inactive
